target: neutrophil elastase (Homo sapiens (Human)); assay: Human Neutrophil Elastase Assay; type: biochemical; conditions: substrate MeOSuc-Ala-Ala-Pro-Val-AMC
parameter: IC50 (nM)

CCOC(=O)C1=C(C)N(c2cccc(C(F)(F)F)c2)C(=O)N(C)C1c1ccc(C#N)cc1C1=CCNCC1 (stereo not drawn) [Example 15] = 3
CCOC(=O)C1=C(C)N(c2cccc(C(F)(F)F)c2)C(=O)N(C)C1c1ccc(C#N)cc1C(=O)N1CCN2CCOCC2C1 (stereo not drawn) [Example 3.46] = 3.8
CCOC(=O)C1=C(C)N(c2cccc(C(F)(F)F)c2)C(=O)N(C)C1c1ccc(C#N)cc1C(=O)NCC(F)(F)F (stereo not drawn) [Example 3.26] = 1.6
CC(=O)C1=C(C)N(c2cccc(C(F)(F)F)c2)C(=O)N(C)C1c1ccc(C#N)cc1C(=O)NC(C)c1ccco1 (stereo not drawn) [Example 1.51] = 1.4

A = CCOC(=O)C1=C(C)N(c2cccc(C(F)(F)F)c2)C(=O)N(C)C1c1ccc(C#N)cc1C(N)=O (stereo not drawn) [Example 3.3]
B = CC(=O)C1=C(C)N(c2cccc(C(F)(F)F)c2)C(=O)N(C)C1c1ccc(C#N)cc1C(=O)N1CCNC(C)C1 (stereo not drawn) [Example 2.15]
Hello, I am sorting some records. Could you say if A or B has the smaller IC50 value? API: response body contains the label of the selected item.
A

P = CCOC(=O)C1=C(C)N(c2cccc(C(F)(F)F)c2)C(=O)N(C)C1c1ccc(C#N)cc1C(=O)N1CCC1 (stereo not drawn) [Example 3.9]
Q = CCOC(=O)C1=C(C)N(c2cccc(C(F)(F)F)c2)C(=O)N(C)C1c1ccc(C#N)cc1C(=O)NC1CCN(C)C1 (stereo not drawn) [Example 4.18]
Quick one: lower IC50, P or Q ? Bench note: the answer is the label of the chosen record.
Q

---

assay: Aqueous solubility; format: physicochemical; conditions: McIlvaine buffer pH 6.8, 2.5% DMSO, 24 h
parameter: Aqueous solubility (µg/mL)

CC(=O)C1=C(C)N(c2cccc(C(F)(F)F)c2)C(=O)N(C)C1c1ccc(C#N)cc1C(=O)NCCF (stereo not shown) = 66
CC(=O)C1=C(C)N(c2cccc(C(F)(F)F)c2)C(=O)N(C)C1c1ccc(C#N)cc1C(=O)NC1CC1 (stereo not shown) = 76
CNC(=O)c1cc(C#N)ccc1[C@@H]1C(C(C)=O)=C(C)N(c2cccc(C(F)(F)F)c2)C(=O)N1C = 51
CC(=O)C1=C(C)N(c2cccc(C(F)(F)F)c2)C(=O)N(C)C1c1ccc(C#N)cc1C(=O)NCC#N (stereo not shown) = 70

---

biological target: neutrophil elastase (Homo sapiens (Human), UniProt P08246); experiment: Human Neutrophil Elastase Assay; settings: substrate MeOSuc-Ala-Ala-Pro-Val-AMC
Sequence (P08246 30-247): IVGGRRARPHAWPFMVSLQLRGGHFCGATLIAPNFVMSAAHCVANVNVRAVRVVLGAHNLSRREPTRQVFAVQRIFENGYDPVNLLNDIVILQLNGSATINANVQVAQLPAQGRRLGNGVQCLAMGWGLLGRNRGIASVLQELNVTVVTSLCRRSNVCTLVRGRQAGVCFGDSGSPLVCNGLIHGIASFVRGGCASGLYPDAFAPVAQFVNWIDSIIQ
parameter: IC50 (nM)

CC(=O)C1=C(C)N(c2cccc(C(F)(F)F)c2)C(=O)N(C)C1c1ccc(C#N)cc1-c1ccn(C)n1 (centres unmarked) [Example 5.2] = 1.4
CC(=O)C1=C(C)N(c2cccc(C(F)(F)F)c2)C(=O)N(C)C1c1ccc(C#N)cc1-c1ccc2occc2c1 (centres unmarked) [Example 5.13] = 22.6
CCOC(=O)C1=C(C)N(c2cccc(C(F)(F)F)c2)C(=O)N(C)C1c1ccc(C#N)cc1-c1ccnn1C (centres unmarked) [Example 14.6] = 3.1
CC(=O)C1=C(C)N(c2cccc(C(F)(F)F)c2)C(=O)N(C)C1c1ccc(C#N)cc1C(=O)N1CCc2nocc2C1 (centres unmarked) [Example 1.72] = 2.8
CCOC(=O)C1=C(C)N(c2cccc(C(F)(F)F)c2)C(=O)N(C)C1c1ccc(C#N)cc1C(=O)N1CC2COCC(C1)N2 (centres unmarked) [Example 4.4] = 11.4

1 = CCOC(=O)C1=C(C)N(c2cccc(C(F)(F)F)c2)C(=O)N(C)C1c1ccc(C#N)cc1-c1cn[nH]c1 (centres unmarked) [Example 14.2]
2 = CC(=O)C1=C(C)N(c2cccc(C(F)(F)F)c2)C(=O)N(C)C1c1ccc(C#N)cc1C(=O)NCc1ccc(C#N)o1 (centres unmarked) [Example 1.67]
// compare measured IC50, left 1 , right 2 , return larger Returns: label corresponding to the selected item.
1
(1: 1.9 nM, 2: 1.3 nM)
